# Format: in vivo, human
# Experimental Context: male, human, plasma, po, 150 mg
Test Readout: k el (s⁻¹)
The answer is to be given in s⁻¹; state only the numeric part.

**Q:** k el for O=C1O[C@H]([C@@H](O)CO)C(O)=C1O [AA, L-ascorbic acid] ?
**A:** 8.61e-05

---

# Type: in vivo, human
# Experimental Context: male, human, plasma, po, 150 mg
Test Readout: half-life (h)
The response must be a number in h with no trailing unit.

**Q:** Which half-life value belongs to O=C1O[C@H]([C@@H](O)CO)C(O)=C1O [AA, L-ascorbic acid] ?
**A:** 3.14
